# Target Under Test: Melanocortin receptor 3 (Homo sapiens, UniProt P41968)
# Sequence (P41968 whole entry): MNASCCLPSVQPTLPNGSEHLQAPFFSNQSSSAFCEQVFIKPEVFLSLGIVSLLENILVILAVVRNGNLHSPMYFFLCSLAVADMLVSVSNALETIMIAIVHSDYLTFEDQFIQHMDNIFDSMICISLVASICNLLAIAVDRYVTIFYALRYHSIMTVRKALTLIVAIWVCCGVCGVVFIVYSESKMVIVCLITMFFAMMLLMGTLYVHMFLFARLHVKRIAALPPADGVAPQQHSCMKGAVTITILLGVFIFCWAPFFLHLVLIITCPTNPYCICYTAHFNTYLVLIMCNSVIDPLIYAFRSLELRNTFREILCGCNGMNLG
# Method Summary: Displacement of [125I]NDP-MSH from human recombinant MC3 receptor expressed in Sf9 cells
Assign pKi to each entry below.
Give bare numbers, as −log10 of the molar value.

NCCCCCN(Cc1ccccc1)C(=O)CCCc1c[nH]c2ccccc12
4.82
NCc1cccc(CN(Cc2ccccc2)C(=O)CCCc2c[nH]c3ccccc23)c1
4.35
NCCCCN(Cc1ccccc1)C(=O)CCCc1c(Cc2ccc(O)cc2)[nH]c2ccccc12
4.80
COc1ccc(CN(C(=O)CCCc2c(Cc3ccc(O)cc3)[nH]c3ccccc23)C2CCC(CC3CCC(N)CC3)CC2)cc1OC (centres undefined)
4.64
NC1CCCC(NC(=O)NC2CCCC(N(C/C(Cl)=C/c3ccccc3)C(=O)CCCc3c[nH]c4ccccc34)C2)C1 (centres undefined)
4.35
CC(C)N(CCCCN)C(=O)c1c(Cc2ccc(O)cc2)[nH]c2ccccc12
3.97

Please give pKi for each item listed below.
1. NCCCN(C(=O)Cc1c[nH]c2ccccc12)C1CCc2ccccc2C1 (centres undefined)
2. NCCCCN(C/C(Cl)=C/c1ccccc1)C(=O)CCCc1c[nH]c2ccccc12

-- reply
4.43
4.49

-- ask For Melanocortin receptor 3 (Homo sapiens, UniProt P41968), give the measured pKi of the entry Cc1ccc(CN(C(=O)CCCc2c(Cc3ccc(O)cc3)[nH]c3ccccc23)C2CCC(CC3CCC(N)CC3)CC2)cc1 (centres undefined)
-- reply 3.83
